# Test system: L6 (Rattus norvegicus)
# assay.details: Glucose uptake in Rattus norvegicus (rat) L6 cells at 50 uM
Reported values of glucose uptake for individual entries
Record the value in %, omitting the unit from your answer.

Consider the worked cases shown below.
{"smiles.representation": "N#CC(C#N)=Cc1ccc(OCCSc2nnc(-c3ccc(F)cc3)o2)cc1", "endpoint.unit": "%", "result.number": 13.3}
{"smiles.representation": "N#CC(C#N)=Cc1ccc(OCCSc2nnc(-c3ccc(Cl)cc3)o2)cc1", "endpoint.unit": "%", "result.number": 24.2}

For the record N#CC(C#N)=Cc1ccc(OCCSc2nnc(-c3ccccc3)o2)cc1 , what value of glucose uptake is listed for L6 (Rattus norvegicus)? 25.3
